B1: HDV Ribozyme (parent)
chain: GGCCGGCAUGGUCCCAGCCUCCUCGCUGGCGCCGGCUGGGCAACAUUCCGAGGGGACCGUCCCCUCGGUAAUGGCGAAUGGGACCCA

Variants of: B1
experiment: self-cleavage, relative activity (ratio to wild type); higher = more cleavage; co-transcriptional
propertyLabel: self-cleavage

variantid="C15A U79A" measuredvalue=0.519
variantid="A16U C44G" measuredvalue=0.604
variantid="U12G G68A" measuredvalue=0.529
variantid="C26A C48A" measuredvalue=0.941
variantid="G53A G82C" measuredvalue=0.246
variantid="C21U C49G" measuredvalue=0.102
variantid="G80U A83C" measuredvalue=0.254
variantid="G10U C64A" measuredvalue=0.513
variantid="G2A A8C" measuredvalue=0.106
variantid="C13U C18U" measuredvalue=0.295
variantid="G29C G52A" measuredvalue=0.0615
variantid="A8U A45U" measuredvalue=0.587
variantid="U65C G80A" measuredvalue=0.356
variantid="C26U C36U" measuredvalue=0.975
variantid="C4U C41G" measuredvalue=0.374
variantid="C24A G39U" measuredvalue=0.211
variantid="G29A C41A" measuredvalue=0.0405
variantid="G34A G81A" measuredvalue=0.128
variantid="C32U C57G" measuredvalue=0.975
